Below is a list of entries, each paired with its recorded relative viability value.
- Tested on: NCI-H2009
- ASSAY OVERVIEW: relative viability (nuclei count vs DMSO), 5 days (fraction); higher = more cells survive
- CONDITION PARAMETERS: first compound 0.3162 µM
Write the value as a bare number.

CCN(CC)CCCCNc1ncc2cc(-c3cc(OC)cc(OC)c3)c(NC(=O)NC(C)(C)C)nc2n1 + CC(=O)Nc1cccc(-n2c(=O)n(C3CC3)c(=O)c3c(Nc4ccc(I)cc4F)n(C)c(=O)c(C)c32)c1 [Trametinib] (partner 0.02 µM) ... 0.254
CCN(CC)CCCCNc1ncc2cc(-c3cc(OC)cc(OC)c3)c(NC(=O)NC(C)(C)C)nc2n1 + CS(=O)(=O)N1CCN(Cc2cc3nc(-c4cccc5[nH]ncc45)nc(N4CCOCC4)c3s2)CC1 [Pictilisib] (partner 1 µM) ... 0.965
O=c1cc(N2CCOCC2)oc2c(-c3cccc4c3sc3ccccc34)cccc12 + COc1cc2c(Oc3ccc(NC(=O)C4(C(=O)Nc5ccc(F)cc5)CC4)cc3F)ccnc2cc1OCCCN1CCOCC1 [Foretinib] (partner 0.25 µM) ... 1.22

Q. Return reported relative viability; argument: CCN(CC)CCCCNc1ncc2cc(-c3cc(OC)cc(OC)c3)c(NC(=O)NC(C)(C)C)nc2n1 + COc1cccc2cc(-c3nc([C@H]4CC[C@H](C(=O)O)CC4)n4ncnc(N)c34)[nH]c12 [OSI-027] (partner 0.5 µM)
A. 0.675

Origin of measurements: the supplement of paper PMC10307832
